assay_procedure: Pharmacokinetics of RAD001 in blood, Phase I once-daily oral dosing
Type: in vivo, Japanese patients
study_conditions: human, whole blood, oral, 2.5 mg/day, Cmax, Day 1, 2.5 mg/day (n = 3), mean ± SD
readout_name: Cmax (ng/mL)

[[record]]
line_notation = "CO[C@H]1C[C@@H]2CC[C@@H](C)[C@@](O)(O2)C(=O)C(=O)N2CCCC[C@H]2C(=O)O[C@H]([C@H](C)C[C@@H]2CC[C@@H](OCCO)[C@H](OC)C2)CC(=O)[C@H](C)/C=C(\\C)[C@@H](O)[C@@H](OC)C(=O)[C@H](C)C[C@H](C)/C=C/C=C/C=C/1C"
readout_name = "Cmax"
measured = 15.1


====

assay_procedure: Pharmacokinetics of RAD001 in blood, Phase I once-daily oral dosing
Format: in vivo, Japanese patients
study_conditions: human, whole blood, oral, 5 mg/day, tmax Median, Day 15, 5 mg/day (n = 3)
readout_name: Tmax (h)

[[record]]
compound = "CO[C@H]1C[C@@H]2CC[C@@H](C)[C@@](O)(O2)C(=O)C(=O)N2CCCC[C@H]2C(=O)O[C@H]([C@H](C)C[C@@H]2CC[C@@H](OCCO)[C@H](OC)C2)CC(=O)[C@H](C)/C=C(\\C)[C@@H](O)[C@@H](OC)C(=O)[C@H](C)C[C@H](C)/C=C/C=C/C=C/1C [RAD001, everolimus]"
measured = 1.98

